Known IC50 at 72 h of a selection of compounds
assay: In vitro cytotoxicity, standard MTT assay, WI38 cells; type: cell-based, human; conditions: human, 24 h incubation, PBS wash, then GSH-OEt (6 equiv.) and additional 48 h; read-out: Cytotoxicity IC50, WI38, Assay 2
Just the number in nM, nothing appended.

compound="CC(=O)O[C@@]12CO[C@@H]1C[C@H](O)[C@@]1(C)C(=O)[C@H](OC(=O)C3CC3)C3=C(C)[C@@H](OC(=O)[C@H](OC(=O)Cc4ccccc4SSC(C)C(=O)NCCNc4nc(NCCOCCOCCOCCNC(=O)CCCC[C@@H]5SC[C@@H]6NC(=O)N[C@@H]65)nc(NCc5cn(CCOCCOCCOCCF)nn5)n4)[C@H](C=C(C)C)NC(=O)OC(C)(C)C)C[C@@](O)([C@@H](OC(=O)c4ccccc4)[C@H]21)C3(C)C (some centres unmarked) [Conjugate 1]" observed_value=615

API: the following record is the query input.
# get_value(readout='IC50 at 72 h', item= CC(=O)O[C@@]12CO[C@@H]1C[C@H](O)[C@@]1(C)C(=O)[C@H](OC(=O)C3CC3)C3=C(C)[C@@H](OC(=O)[C@H](OC(=O)Cc4ccccc4SSC(C)CCC(=O)NNC(=O)CCCC[C@@H]4SC[C@@H]5NC(=O)N[C@@H]54)[C@H](C=C(C)C)NC(=O)OC(C)(C)C)C[C@@](O)([C@@H](OC(=O)c4ccccc4)[C@H]21)C3(C)C (some centres unmarked) [Conjugate 15, Biotin-(SS-Linker)-SB-T-1214] )
590

====

tested on: WI38 human lung fibroblast cell line (BR−); experiment: In vitro cytotoxicity, standard MTT assay, WI38 cells; type: cell-based; conditions: incubation at 37° C. for 48 h; read-out: Cytotoxicity IC50, WI38
measured metric: pIC50
Recall that pIC50 is obtained by taking minus log10 of the concentration measured in molar.

Record lookup: for WI38 human lung fibroblast cell line (BR−), what pIC50 belongs to CC(=O)O[C@H]1C(=O)[C@@]2(C)[C@H]([C@H](OC(=O)c3ccccc3)[C@]3(O)C[C@H](OC(=O)[C@H](O)[C@@H](NC(=O)c4ccccc4)c4ccccc4)C(C)=C1C3(C)C)[C@]1(OC(C)=O)CO[C@@H]1C[C@@H]2O [paclitaxel, reference compound] ?
7.21

====

Known IC50 at 72 h of a selection of compounds
test: In vitro cytotoxicity, standard MTT assay, WI38 cells; assay type: cell-based, human; details: human, 24 h incubation, then GSH-OEt (6 equiv.) added without washing, additional 48 h; read-out: Cytotoxicity IC50, WI38, Assay 3
Just the number in nM, nothing appended.

compound="CC(=O)O[C@@]12CO[C@@H]1C[C@H](O)[C@@]1(C)C(=O)[C@H](OC(=O)C3CC3)C3=C(C)[C@@H](OC(=O)[C@H](OC(=O)Cc4ccccc4SSC(C)CCC(=O)NNC(=O)CCCC[C@@H]4SC[C@@H]5NC(=O)N[C@@H]54)[C@H](C=C(C)C)NC(=O)OC(C)(C)C)C[C@@](O)([C@@H](OC(=O)c4ccccc4)[C@H]21)C3(C)C (some centres unmarked) [Conjugate 15, Biotin-(SS-Linker)-SB-T-1214]" unit_of_measure=nM observed_value=11

# get_value(readout='IC50 at 72 h', item= CC(=O)O[C@@]12CO[C@@H]1C[C@H](O)[C@@]1(C)C(=O)[C@H](OC(=O)C3CC3)C3=C(C)[C@@H](OC(=O)[C@H](OC(=O)Cc4ccccc4SSC(C)C(=O)NCCNc4nc(NCCOCCOCCOCCNC(=O)CCCC[C@@H]5SC[C@@H]6NC(=O)N[C@@H]65)nc(NCc5cn(CCOCCOCCOCCF)nn5)n4)[C@H](C=C(C)C)NC(=O)OC(C)(C)C)C[C@@](O)([C@@H](OC(=O)c4ccccc4)[C@H]21)C3(C)C (some centres unmarked) [Conjugate 1] )
12.9
